Assay comment: Antiproliferative activity against human primary fibroblasts after 48 hrs by resazurin reduction test
Format: cell-based
Study conditions: Fibroblast
hey, just use Satisfied if measured IC50 is less than 10 µM, otherwise Not satisfied

> print(dat)
                               smiles.entry  class.assignment
1  CC(=O)Nc1ccc(-c2cnc(N)nc2-c2c[nH]c3c(Br)cccc23)cc1         Satisfied
2          Nc1ccc2[nH]cc(-c3nc(N)ncc3I)c2c1     Not satisfied
3  CC(=O)c1ccc(-c2cnc(N)nc2-c2c[nH]c3c(Br)cccc23)cc1     Not satisfied
4  Nc1ncc(-c2ccc(C(F)(F)F)cc2)c(-c2c[nH]c3c(Br)cccc23)n1     Not satisfied
5        Nc1ncc(I)c(-c2c[nH]c3c(N)cccc23)n1     Not satisfied

IC50 under 10 µM? Item: "CC(=O)c1ccc(-c2cnc(N)nc2-c2c[nH]c3cc(Br)ccc23)cc1"
Satisfied

* * *

Tested on: MCF7
Assay comment: Antiproliferative activity against human MCF7 cells after 48 hrs by resazurin reduction test
Study conditions: MCF7, 48 h
Catalogue of IC50 values

Study these solved cases before continuing.
> print(dat)
                               smiles.entry  reported.property  endpoint.result
1  Nc1nccc(-c2c[nH]c3cc([N+](=O)[O-])ccc23)n1               IC50          > 25 µM
2  COc1cccc(-c2cnc(N)nc2-c2c[nH]c3cccc(Br)c23)c1               IC50          > 10 µM
3          Nc1nccc(-c2c[nH]c3c(Br)cccc23)n1               IC50          > 25 µM
4       Nc1ncc(I)c(-c2c[nH]c3cccc(Br)c23)n1               IC50          > 10 µM
5  CC(=O)Nc1ccc(-c2cnc(N)nc2-c2c[nH]c3c(Br)cccc23)cc1               IC50          > 25 µM

// recorded IC50 for "Nc1nccc(-c2c[nH]c3c([N+](=O)[O-])cccc23)n1" : > 25 µM

* * *

Tested on: PC-3
Assay comment: Antiproliferative activity against human PC3 cells after 48 hrs by resazurin reduction test
Study conditions: PC-3, 48 h
Catalogue of IC50 values
Please state the figure in µM; there is no need to write the unit.

> print(dat)
                               smiles.entry  endpoint.result
1  Nc1ncc(I)c(-c2c[nH]c3cc([N+](=O)[O-])ccc23)n1               11
2  Nc1ncc(I)c(-c2c[nH]c3c([N+](=O)[O-])cccc23)n1                6
3  CC(=O)Nc1ccc(-c2cnc(N)nc2-c2c[nH]c3cc(Br)ccc23)cc1               14

// recorded IC50 for "CC(=O)Nc1ccc(-c2cnc(N)nc2-c2c[nH]c3c(Br)cccc23)cc1" : 5

* * *

System: PC-3
Assay comment: Antiproliferative activity against human PC3 cells after 48 hrs by resazurin reduction test
Study conditions: PC-3, 48 h
Reported property: IC50 (µM)
Please state the figure in µM; there is no need to write the unit.

// recorded IC50 for "Nc1ncc(-c2ccc(C(F)(F)F)cc2)c(-c2c[nH]c3c(Br)cccc23)n1" : 8

* * *

System: DU-145
Assay comment: Antiproliferative activity against human DU145 cells after 48 hrs by resazurin reduction test
Type: functional, cell-based
Study conditions: DU-145, 48 h
Reported property: IC50 (µM)
Please state the figure in µM; there is no need to write the unit.

Study these solved cases before continuing.
> print(dat)
                               smiles.entry  reported.property  endpoint.result
1  Nc1ncc(I)c(-c2c[nH]c3cccc([N+](=O)[O-])c23)n1               IC50              5.4
2        Nc1ncc(I)c(-c2c[nH]c3c(N)cccc23)n1               IC50              6.1
3  CC(=O)c1ccc(-c2cnc(N)nc2-c2c[nH]c3c(Br)cccc23)cc1               IC50              5.7

Turning now to a further molecule:
// recorded IC50 for "Nc1ncc(I)c(-c2c[nH]c3ccccc23)n1" : 5

* * *

Tested on: MCF7
Assay comment: Antiproliferative activity against human MCF7 cells after 48 hrs by resazurin reduction test
Study conditions: MCF7, 48 h
Reported property: IC50

> print(dat)
                               smiles.entry  endpoint.result
1        Nc1ncc(I)c(-c2c[nH]c3c(N)cccc23)n1            20 µM
2  CC(=O)c1ccc(-c2cnc(N)nc2-c2c[nH]c3c(Br)cccc23)cc1          > 10 µM

Turning now to a further molecule:
// recorded IC50 for "Nc1ncc(-c2ccc(C(F)(F)F)cc2)c(-c2c[nH]c3cccc(Br)c23)n1" : > 10 µM

* * *

Assay comment: Inhibition of pig brain CK1 delta/epsilon using RRKHAAIGpSAYSITA as substrate
Parameters: species or system Sus scrofa
pIC50: −log10 of the molar value.
Catalogue of pIC50 values

Study these solved cases before continuing.
> print(dat)
                               smiles.entry  endpoint.result
1  Nc1ncc(-c2ccc(C(F)(F)F)cc2)c(-c2c[nH]c3c(Br)cccc23)n1           < 5.00
2  CC(=O)c1ccc(-c2cnc(N)nc2-c2c[nH]c3cccc(Br)c23)cc1           < 5.00
3  Nc1ncc(-c2ccc(C(F)(F)F)cc2)c(-c2c[nH]c3cc(Br)ccc23)n1           < 5.00

// recorded pIC50 for "Nc1ncc(I)c(-c2c[nH]c3c([N+](=O)[O-])cccc23)n1" : < 5.00

// recorded pIC50 for "COc1cccc(-c2cnc(N)nc2-c2c[nH]c3cccc(Br)c23)c1" : < 5.00

* * *

Catalogue of IC50 values
Assay comment: Inhibition of pig brain CK1 delta/epsilon using RRKHAAIGpSAYSITA as substrate
Parameters: species or system Sus scrofa
Please state the figure in µM; there is no need to write the unit.

> print(dat)
                               smiles.entry  endpoint.result
1  CC(=O)Nc1ccc(-c2cnc(N)nc2-c2c[nH]c3cc(Br)ccc23)cc1              8.1
2  COc1cccc(-c2cnc(N)nc2-c2c[nH]c3ccc(Br)cc23)c1              2.2

// recorded IC50 for "Nc1nccc(-c2c[nH]c3c([N+](=O)[O-])cccc23)n1" : 10

// recorded IC50 for "Nc1nccc(-c2c[nH]c3cc([N+](=O)[O-])ccc23)n1" : 6.3

* * *

Tested on: MCF7
Assay comment: Antiproliferative activity against human MCF7 cells after 48 hrs by resazurin reduction test
Study conditions: MCF7, 48 h
pIC50: −log10 of the molar value.
Catalogue of pIC50 values

> print(dat)
                               smiles.entry  endpoint.result
1       Nc1ncc(I)c(-c2c[nH]c3ccc(Br)cc23)n1           < 4.60
2  CC(=O)Nc1ccc(-c2cnc(N)nc2-c2c[nH]c3ccc(Br)cc23)cc1           < 5.00
3  Nc1ncc(I)c(-c2c[nH]c3cc([N+](=O)[O-])ccc23)n1           < 4.60

Turning now to a further compound:
// recorded pIC50 for "Nc1ncc(-c2ccc(C(F)(F)F)cc2)c(-c2c[nH]c3ccc(Br)cc23)n1" : < 5.00

* * *

Assay comment: Inhibition of pig brain CK1 delta/epsilon using RRKHAAIGpSAYSITA as substrate
Set-up: species or system Sus scrofa
Catalogue of pIC50 values
Please note pIC50 is a logarithmic value: minus log10 of concentration in mol/L. Answer with that number alone.

Study these solved cases before continuing.
> print(dat)
                       smiles.entry  reported.property  endpoint.result
1  Nc1ccc2c(-c3nc(N)ncc3I)c[nH]c2c1              pIC50             6.29
2  Nc1nccc(-c2c[nH]c3c(Br)cccc23)n1              pIC50             5.38

// recorded pIC50 for "Nc1ncc(I)c(-c2c[nH]c3ccccc23)n1" : 6.05

* * *

Study system: Dual specificity tyrosine-phosphorylation-regulated kinase 1A (Rattus norvegicus)
Assay comment: Inhibition of rat recombinant GST-tagged DYRK1A using myelin protein as substrate and [gamma32]-ATP after 30 mins by scintillation counting
Reported property: log10 of IC50 (log10 of the value in µM)
Heads up: the numbers are on a log10 scale; they represent IC50 in µM.

Study these solved cases before continuing.
> print(dat)
                               smiles.entry  endpoint.result
1              Nc1nccc(-c2c[nH]c3ccccc23)n1            -0.15
2  CC(=O)Nc1ccc(-c2cnc(N)nc2-c2c[nH]c3ccc(Br)cc23)cc1             0.62
3          Nc1nccc(-c2c[nH]c3ccc(Br)cc23)n1            -0.48
4  CC(=O)c1ccc(-c2cnc(N)nc2-c2c[nH]c3cccc(Br)c23)cc1             0.32
5       Nc1ncc(I)c(-c2c[nH]c3cc(Br)ccc23)n1            -1.47
6  CC(=O)c1ccc(-c2cnc(N)nc2-c2c[nH]c3c(Br)cccc23)cc1            -0.54
7  Nc1ncc(I)c(-c2c[nH]c3cccc([N+](=O)[O-])c23)n1             0.96
8  COc1cccc(-c2cnc(N)nc2-c2c[nH]c3cc(Br)ccc23)c1             0.91

Test item "Nc1ncc(-c2ccc(C(F)(F)F)cc2)c(-c2c[nH]c3cccc(Br)c23)n1" ; Dual specificity tyrosine-phosphorylation-regulated kinase 1A (Rattus norvegicus); reported log10 of IC50 was 0.27

Test item "Nc1ncc(I)c(-c2c[nH]c3ccc([N+](=O)[O-])cc23)n1" ; Dual specificity tyrosine-phosphorylation-regulated kinase 1A (Rattus norvegicus); reported log10 of IC50 was -0.60

Test item "Nc1nccc(-c2c[nH]c3cc([N+](=O)[O-])ccc23)n1" ; Dual specificity tyrosine-phosphorylation-regulated kinase 1A (Rattus norvegicus); reported log10 of IC50 was 0.04

Test item "Nc1ncc(I)c(-c2c[nH]c3cccc(Br)c23)n1" ; Dual specificity tyrosine-phosphorylation-regulated kinase 1A (Rattus norvegicus); reported log10 of IC50 was 0.16

Test item "Nc1nccc(-c2c[nH]c3c(Br)cccc23)n1" ; Dual specificity tyrosine-phosphorylation-regulated kinase 1A (Rattus norvegicus); reported log10 of IC50 was -1.17

Test item "Nc1ncc(I)c(-c2c[nH]c3ccccc23)n1" ; Dual specificity tyrosine-phosphorylation-regulated kinase 1A (Rattus norvegicus); reported log10 of IC50 was -1.18

Test item "Nc1ncc(I)c(-c2c[nH]c3c(N)cccc23)n1" ; Dual specificity tyrosine-phosphorylation-regulated kinase 1A (Rattus norvegicus); reported log10 of IC50 was -0.96

Test item "Nc1nccc(-c2c[nH]c3c([N+](=O)[O-])cccc23)n1" ; Dual specificity tyrosine-phosphorylation-regulated kinase 1A (Rattus norvegicus); reported log10 of IC50 was -1.07

Test item "COc1cccc(-c2cnc(N)nc2-c2c[nH]c3ccc(Br)cc23)c1" ; Dual specificity tyrosine-phosphorylation-regulated kinase 1A (Rattus norvegicus); reported log10 of IC50 was 0.75

Test item "COc1cccc(-c2cnc(N)nc2-c2c[nH]c3c(Br)cccc23)c1" ; Dual specificity tyrosine-phosphorylation-regulated kinase 1A (Rattus norvegicus); reported log10 of IC50 was -0.07

Test item "Nc1nccc(-c2c[nH]c3cc(Br)ccc23)n1" ; Dual specificity tyrosine-phosphorylation-regulated kinase 1A (Rattus norvegicus); reported log10 of IC50 was -0.89
